# method: The drug is tested on Alistipes indistinctus strain: DSM22520 for biotransformation. The drug concentrations were measured before and after a 12-h incubation by liquid-chromatography-coupled mass spectrometry (LC–MS)
# condition_info: 2 µM
measurement_name: Bacterial Biotransformation

chemical_string=c1ccc2[nH]c(-c3cscn3)nc2c1 observed_result="Compound NOT metabolized"
chemical_string=O=C([O-])C[C@H](O)C[C@H](O)/C=C/c1c(C2CC2)nc2ccccc2c1-c1ccc(F)cc1.O=C([O-])C[C@H](O)C[C@H](O)/C=C/c1c(C2CC2)nc2ccccc2c1-c1ccc(F)cc1.[Ca+2] observed_result="Compound NOT metabolized"
chemical_string=Cc1nc(-c2ccc(OCC(C)C)c(C#N)c2)sc1C(=O)O observed_result="Compound NOT metabolized"

* * *

# condition_info: bacteroides intestinalis, 12 h, 2 µM
# Description: The drug is tested on Bacteroides intestinalis strain: DSM17393 for biotransformation. The drug concentrations were measured before and after a 12-h incubation by liquid-chromatography-coupled mass spectrometry (LC–MS)
measurement_name: Bacterial Biotransformation

compound="CCN(CC)C(C)CN1c2ccccc2Sc2ccccc21 (centres undefined)" observed_result="Compound metabolized"
compound=CN1C(C(=O)Nc2ccccn2)=C(O)c2sccc2S1(=O)=O observed_result="Compound NOT metabolized"
compound="CCCC1O[C@@H]2C[C@H]3[C@@H]4CCC5=CC(=O)C=C[C@]5(C)[C@H]4[C@@H](O)C[C@]3(C)[C@]2(C(=O)CO)O1 (some centres undefined) [BUDESONIDE]" observed_result="Compound NOT metabolized"
compound="CCN1CCCC1CNC(=O)c1cc(S(N)(=O)=O)ccc1OC (centres undefined) [SULPIRIDE]" observed_result="Compound NOT metabolized"
compound="COC(=O)C(c1ccccc1)C1CCCCN1 (centres undefined) [METHYLPHENIDATE]" observed_result="Compound NOT metabolized"
compound="CC(C)(Oc1ccc(CCNC(=O)c2ccc(Cl)cc2)cc1)C(=O)O [BEZAFIBRATE]" observed_result="Compound metabolized"
compound="CC(C(=O)O)c1ccc2c(c1)Cc1cccnc1O2 (centres undefined)" observed_result="Compound metabolized"
compound="CN1[C@@H]2CC[C@H]1C[C@@H](OC(=O)C(CO)c1ccccc1)C2 (some centres undefined)" observed_result="Compound NOT metabolized"
compound="CC(=O)Nc1ccc(OC(C)=O)cc1 [DIACETAMATE]" observed_result="Compound metabolized"

* * *

# condition_info: bacteroides fragilis, 12 h, 2 µM
# Description: The drug is tested on Bacteroides fragilis strain: DS-208 for biotransformation. The drug concentrations were measured before and after a 12-h incubation by liquid-chromatography-coupled mass spectrometry (LC–MS)
measurement_name: Bacterial Biotransformation

molecule=Cc1nc(-c2ccc(OCC(C)C)c(C#N)c2)sc1C(=O)O observed_result="Compound NOT metabolized"
molecule=CCS(=O)(=O)CCn1c([N+](=O)[O-])cnc1C observed_result="Compound metabolized"
molecule="CCN1CCCC1CNC(=O)c1cc(S(=O)(=O)CC)c(N)cc1OC (stereo not drawn) [AMISULPRIDE]" observed_result="Compound NOT metabolized"
molecule=CCOC(=O)[C@H](CCc1ccccc1)N[C@H]1CCc2ccccc2N(CC(=O)O)C1=O observed_result="Compound metabolized"
molecule=CO[C@]12C[C@@H](COC(=O)c3cncc(Br)c3)CN(C)[C@@H]1Cc1cn(C)c3cccc2c13 observed_result="Compound NOT metabolized"
molecule=Cc1ccc(-c2nc3ccc(C)cn3c2CC(=O)N(C)C)cc1 observed_result="Compound NOT metabolized"
molecule=CN1CCN(C2=Nc3cc(Cl)ccc3Nc3ccccc32)CC1 observed_result="Compound NOT metabolized"
molecule="CC(C)N(CCC(C(N)=O)(c1ccccc1)c1ccccn1)C(C)C.O=P(O)(O)O (stereo not drawn) [DISOPYRAMIDE PHOSPHATE]" observed_result="Compound NOT metabolized"
molecule=CCCN(CCC)CCc1cccc2c1CC(=O)N2 observed_result="Compound NOT metabolized"
molecule=COc1ccc2c(c1OC)C(=O)O[C@@H]2[C@H]1c2c(cc3c(c2OC)OCO3)CCN1C observed_result="Compound metabolized"
molecule="CCCCCCOC(=O)/N=C(/N)c1ccc(NCc2nc3cc(C(=O)N(CCC(=O)OCC)c4ccccn4)ccc3n2C)cc1.CS(=O)(=O)O [DABIGATRAN ETEXILATE MESYLATE]" observed_result="Compound NOT metabolized"
molecule="CCN(CC)CCOCCOC(=O)C1(c2ccccc2)CCCC1.O=C(O)CC(O)(CC(=O)O)C(=O)O [CARBETAPENTANE CITRATE]" observed_result="Compound metabolized"
molecule="COC(=O)C(c1ccccc1)C1CCCCN1 (stereo not drawn) [METHYLPHENIDATE]" observed_result="Compound NOT metabolized"
molecule=O=C1[C@H](CC[C@H](O)c2ccc(F)cc2)[C@@H](c2ccc(O)cc2)N1c1ccc(F)cc1 observed_result="Compound NOT metabolized"
molecule=NC12CC3CC(CC(C3)C1)C2 observed_result="Compound metabolized"
molecule=COc1cc2nc(N3CCN(C(=O)c4ccco4)CC3)nc(N)c2cc1OC observed_result="Compound NOT metabolized"
molecule=Clc1ccc(Cn2c(CN3CCCC3)nc3ccccc32)cc1 observed_result="Compound NOT metabolized"
molecule="COc1cc(C(=O)NCc2ccc(OCCN(C)C)cc2)cc(OC)c1OC [TRIMETHOBENZAMIDE]" observed_result="Compound NOT metabolized"
